# System: Vibrio harveyi BB721 quorum sensing luminescence, 9 h
# test.name: inhibitors of constitutive quorum-sensing luminescence in V. harveyi, dose response, counter-screen for AI-2 quorum sensing inhibitor project, strain BB721 constitutive-on, dry powder (AID 493104)
The following compounds are shown together with reported AC50 values.

Answered cases to consult:
{"structure": "C=Cn1c(C(=O)O)ccc1-c1ccc(CC)cc1", "AC50": "13.8 µM"}
{"structure": "COc1cc(NC(=O)CN2C(=O)NC(c3ccccc3)(c3ccccc3)C2=O)cc(OC)c1", "AC50": "0.919 µM"}
{"structure": "O=C1C=C/C(=C/Br)O1", "AC50": "6.43 µM"}
{"structure": "CCc1ccc(S(=O)(=O)Nc2ccc(Br)cn2)cc1", "AC50": "11.9 µM"}

Now turn to the next compound.
Data point: `Cc1cccc(NS(=O)(=O)c2ccc(Oc3ccccc3)cc2)n1` ; AC50 = 12.4 µM
